Target: Type-1 angiotensin II receptor B (Rattus norvegicus)
Sequence (P29089 whole entry): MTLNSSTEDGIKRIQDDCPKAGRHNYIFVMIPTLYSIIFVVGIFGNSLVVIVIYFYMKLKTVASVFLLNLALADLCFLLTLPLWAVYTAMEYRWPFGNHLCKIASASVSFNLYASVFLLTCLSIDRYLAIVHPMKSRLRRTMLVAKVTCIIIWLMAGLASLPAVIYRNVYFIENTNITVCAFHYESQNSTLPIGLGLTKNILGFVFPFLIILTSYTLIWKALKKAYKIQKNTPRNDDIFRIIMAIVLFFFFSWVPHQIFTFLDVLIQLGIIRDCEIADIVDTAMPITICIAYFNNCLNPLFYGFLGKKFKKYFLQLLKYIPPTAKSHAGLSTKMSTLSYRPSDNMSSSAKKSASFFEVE
We begin with a simple list: items and their reported Ki.
Lab book: enter the figure in nM, no units written.

smiles_code=CCCc1nn(Cc2ccc(-c3ccccc3-c3nn[nH]n3)cc2)/c(=N/C(=O)c2ccccc2C(=O)O)s1 measurement=2

What value of Ki has been reported for the following molecule? CCCc1nn(Cc2ccc(-c3ccccc3-c3nn[nH]n3)cc2)/c(=N/C(=O)c2ccccc2Cl)s1
22

Same thing, different molecule: CCc1nn(Cc2ccc(-c3ccccc3-c3nn[nH]n3)cc2)/c(=N/C(=O)c2cccc(F)c2)s1
134

Next up: CCc1nn(Cc2ccc(-c3ccccc3-c3nn[nH]n3)cc2)/c(=N/C(=O)c2ccccc2C(=O)O)s1
0.619

Another molecule: CCc1nn(Cc2ccc(-c3ccccc3-c3nn[nH]n3)cc2)/c(=N/C(=O)c2cccc(Cl)c2)s1
190

// repeat for CCc1nn(Cc2ccc(-c3ccccc3-c3nn[nH]n3)cc2)/c(=N/C(=O)c2ccc(C(F)(F)F)cc2)s1 and report
557

Item: CCc1nn(Cc2ccc(-c3ccccc3-c3nn[nH]n3)cc2)/c(=N/C(=O)c2ccc(Br)cc2)s1
320

Now consider CCc1nn(Cc2ccc(-c3ccccc3-c3nn[nH]n3)cc2)/c(=N/C(=O)c2ccccc2OC)s1 .
2.5

And for CCc1nn(Cc2ccc(-c3ccccc3-c3nn[nH]n3)cc2)/c(=N/C(=O)c2ccccc2)s1 ?
36

Lookup CCc1nn(Cc2ccc(-c3ccccc3-c3nn[nH]n3)cc2)/c(=N/C(=O)c2ccc(C)cc2)s1
48

Just for reference, ChEMBL document CHEMBL1129837 is where these values come from.
